Assay: chemical genetic growth profiling, strain panel (AID 1159580);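 note: tested at 20 µM; growth read once vehicle control cultures reached saturation at 30 °C; 1 = growth at the plate median or of vehicle wells; lower values mean less growth of the strain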
Settings: S. cerevisiae deletion strains, growth OD, locus YGL167C, strain pmr1, active compounds read low
Hit rate of the full screen: of about 5,500 compounds, about 2,000 (36%) were called active. Roughly 18% stayed inconclusive and do not appear here. This is one part of the list.
reported.property: normalized growth
Give bare numbers.

Observe how each entry below is paired with its result.
The compound CC(=O)O[C@H]1C(=O)[C@@]2(C)C([C@H](OC(=O)c3ccccc3)[C@]3(O)C[C@H](OC(=O)[C@H](O)[C@@H](NC(=O)c4ccccc4)c4ccccc4)C(C)=C1C3(C)C)[C@]1(OC(C)=O)CO[C@@H]1C[C@@H]2O (stereo not given in full) showed normalized growth equal to 0.994

What the record says about COc1ccc(-c2coc3c(OC)c(OC)cc(O)c3c2=O)cc1 : normalized growth is 1.01

Query CC(C)[N+](C)(CCOC(=O)C1c2ccccc2Oc2ccccc21)C(C)C yields normalized growth of 0.997

Hi team, please reply with normalized growth for each item in this list.
1. COc1ccc(-c2coc3c(O)c(OC)ccc3c2=O)cc1
2. C[C@@H](N)CO
3. O=c1ccc2cc(O)c(O)cc2o1
4. COc1ccc(C[C@H]2NC[C@H](O)[C@H]2OC(C)=O)cc1
5. CC[C@H]1OC(=O)C[C@@H](O)[C@H](C)[C@@H](O[C@@H]2O[C@H](C)[C@@H](O[C@H]3C[C@@](C)(O)[C@@H](O)[C@H](C)O3)[C@H](N(C)C)[C@H]2O)[C@@H](CC=O)C[C@@H](C)C(=O)/C=C/C(C)=C/[C@@H]1CO[C@@H]1O[C@H](C)[C@@H](O)[C@@H](OC)[C@H]1OC
6. COc1c2c(c(CC=C(C)C)c3oc(=O)c(-c4ccc(O)cc4)c(O)c13)OC(C)(C)C=C2
7. O=C(O)c1cc(=O)c2ccc(Cl)cc2[nH]1

## Result
[0.976, 0.984, 0.998, 1.02, 0.986, 0.976, 1.01]
